Reported Activity values for a set of compounds
# target.or.system: Neuronal acetylcholine receptor subunit alpha-7 (Rattus norvegicus) (UniProt Q05941)
# Sequence (Q05941 whole entry): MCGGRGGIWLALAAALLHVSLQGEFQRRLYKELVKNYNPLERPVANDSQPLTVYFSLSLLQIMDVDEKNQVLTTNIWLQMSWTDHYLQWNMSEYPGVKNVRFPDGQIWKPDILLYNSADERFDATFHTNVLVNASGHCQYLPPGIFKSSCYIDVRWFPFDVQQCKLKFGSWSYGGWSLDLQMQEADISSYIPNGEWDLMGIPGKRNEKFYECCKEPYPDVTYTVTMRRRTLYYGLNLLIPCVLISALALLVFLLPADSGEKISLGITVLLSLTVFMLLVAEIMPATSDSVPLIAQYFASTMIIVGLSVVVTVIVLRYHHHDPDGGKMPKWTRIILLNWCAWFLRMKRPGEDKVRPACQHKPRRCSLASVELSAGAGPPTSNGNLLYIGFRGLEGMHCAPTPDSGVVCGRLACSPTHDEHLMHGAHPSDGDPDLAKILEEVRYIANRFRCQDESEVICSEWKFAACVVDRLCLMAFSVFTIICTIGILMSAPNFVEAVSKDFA
# assay.remarks: Positive allosteric modulator activity at rat alpha7 nAChR expressed in GH4C1 cells assessed as potentiation of acetylcholine response at 3 uM at -70 mV holding potential preincubated for 30 secs followed by co-application with acetylcholine by automated patch clamp assay
# Format: cell-based

Cc1cc(F)c(Cl)cc1NCC1C(c2ccc(S(N)(=O)=O)cc2)C1(C)C (racemic): 9230%
Cc1cc(F)ccc1NCC1C(c2ccc(S(N)(=O)=O)cc2)C1(C)C (racemic): 8660%

# input for lookup
Measured Activity (Neuronal acetylcholine receptor subunit alpha-7 (Rattus norvegicus) (UniProt Q05941)), entry Cc1cc(F)c(F)cc1NC[C@@H]1[C@@H](c2ccc(S(N)(=O)=O)cc2)C1(C)C : 420%
